# System: A549 lung adenocarcinoma cells
# measurement.description: MTT assay, inhibition of cancer cell growth, A549
# stated.conditions: read-out: 50% inhibitory concentration A549, exposure time 96 h
Record form. Attribute: pIC50. Fill in for each entry.
Scale: negative log10 of molar concentration, which is what pIC50 denotes.

Prompt: Any idea what pIC50 was measured for COc1ccc2[c](c1)[Ru-]([n+]1ccn(C)c1)[n+]1cscc1-2.Cc1ccc(C(C)C)cc1.O=[N+]([O-])[O-] ?
Completion: 4.85

Prompt: Any idea what pIC50 was measured for Cc1ccc(C(C)C)cc1.Cn1cc[n+]([Ru-]2[c]3ccccc3-c3csc[n+]32)c1.O=[N+]([O-])[O-] ?
Completion: 4.96

Prompt: Any idea what pIC50 was measured for COc1ccc2[c](c1)[Os-]([n+]1ccn(C)c1)[n+]1cscc1-2.Cc1ccc(C(C)C)cc1.O=[N+]([O-])O ?
Completion: 4.62

Prompt: Any idea what pIC50 was measured for Cc1ccc(C(C)C)cc1.Cn1cc[n+]([Ru-]2[c]3cc(F)ccc3-c3csc[n+]32)c1.O=[N+]([O-])[O-] ?
Completion: 4.70

----------
# measurement.description: Solubility in 1% DMF/PBS
# Excerpt: Solubility is an important factor for the application of metallodrugs. DMF was used as solubilizer to allow comparison to the respective chlorido complexes where the usage of DMSO would lead to stable DMSO adducts. As the coordinated p-cym and leaving groups are present in all synthesized complexes, we focused on the differently substituted 4-phenylthiazoles for estimated changes in lipophilicity.
Please use Yes for Solubility under 20 mM and No for everything else, ties included.

Prompt: Hello, is Solubility of the following compound strictly smaller than 20 mM? COc1ccc2[c](c1)[Ru-]([n+]1ccn(C)c1)[n+]1cscc1-2.Cc1ccc(C(C)C)cc1.O=[N+]([O-])[O-] [Compound 3e]
Completion: Yes

Prompt: Hello, is Solubility of the following compound strictly smaller than 20 mM? Cc1ccc(C(C)C)cc1.Cn1cc[n+]([Ru-]2[c]3cc(S(C)(=O)=O)ccc3-c3csc[n+]32)c1.O=[N+]([O-])[O-] [Compound 3c]
Completion: No

Prompt: Hello, is Solubility of the following compound strictly smaller than 20 mM? Cc1ccc(C(C)C)cc1.Cn1cc[n+]([Ru-]2[c]3cc(F)ccc3-c3csc[n+]32)c1.O=[N+]([O-])[O-] [Compound 3b]
Completion: Yes

Prompt: Hello, is Solubility of the following compound strictly smaller than 20 mM? Cc1ccc(C(C)C)cc1.Cc1ccc2[c](c1)[Ru-]([n+]1ccn(C)c1)[n+]1cscc1-2.O=[N+]([O-])[O-] [Compound 3d]
Completion: Yes

Prompt: Hello, is Solubility of the following compound strictly smaller than 20 mM? Cc1ccc(C(C)C)cc1.Cn1cc[n+]([Ru-]2[c]3ccccc3-c3csc[n+]32)c1.O=[N+]([O-])[O-] [Compound 3a]
Completion: Yes

----------
Record form. Attribute: Cellular accumulation, fg Ru/cell. Fill in for each entry.
# Test system: SW480 cancer cells
# measurement.description: Cellular accumulation (ICP-MS) in SW480 cells
# stated.conditions: 50 μM, 0.5% DMF in MEM, SW480, exposure time 2 h
// units = fg Ru/cell; emit number, no label

Prompt: Any idea what Cellular accumulation, fg Ru/cell was measured for Cc1ccc(C(C)C)cc1.Cc1ccc2[c](c1)[Ru-]([n+]1ccn(C)c1)[n+]1cscc1-2.O=[N+]([O-])[O-] ?
Completion: 477

Prompt: Any idea what Cellular accumulation, fg Ru/cell was measured for Cc1ccc(C(C)C)cc1.Cn1cc[n+]([Ru-]2[c]3ccccc3-c3csc[n+]32)c1.O=[N+]([O-])[O-] ?
Completion: 387

Prompt: Any idea what Cellular accumulation, fg Ru/cell was measured for Cc1ccc(C(C)C)cc1.Cn1cc[n+]([Ru-]2[c]3cc(F)ccc3-c3csc[n+]32)c1.O=[N+]([O-])[O-] ?
Completion: 470

Prompt: Any idea what Cellular accumulation, fg Ru/cell was measured for Cc1ccc(C(C)C)cc1.Cn1cc[n+]([Ru-]2[c]3cc(S(C)(=O)=O)ccc3-c3csc[n+]32)c1.O=[N+]([O-])[O-] ?
Completion: 4.6

Prompt: Any idea what Cellular accumulation, fg Ru/cell was measured for COc1ccc2[c](c1)[Ru-]([n+]1ccn(C)c1)[n+]1cscc1-2.Cc1ccc(C(C)C)cc1.O=[N+]([O-])[O-] ?
Completion: 246
